The reported numbers originate from patent US8592581B2.

Tested on: H1650
Assay: Alamar blue cytotoxicity assay H1650
Type: cell-based
Settings: Homo sapiens, NCI-H1650; 72 hours; read-out: cellular cytotoxicity IC50 H1650
measurement-name: pIC50
Give bare numbers, as −log10 of the molar value.

Memo: CC[C@H](Nc1nc(NCc2cnc(C)cc2C)c2ncn(C(C)C)c2n1)[C@@H](C)O [Compound [1]] , reported pIC50: 6.34

* * *

System: H292
Test: Alamar blue cytotoxicity assay H292
Format: cell-based
Settings: Homo sapiens, NCI-H292; 72 hours; read-out: cellular cytotoxicity IC50 H292
measurement-name: pIC50
Answers are plain numbers, as −log10 of the molar value.

Memo: CC[C@H](Nc1nc(NCc2cnc(C)cc2C)c2ncn(C(C)C)c2n1)[C@@H](C)O [Compound [1]] , reported pIC50: 6.43

* * *

Answer each item with its documented IC50.
Target: CDK2/cyclin E (Homo sapiens (Human), UniProt P24941)
Assay: In-vitro recombinant kinase assay CDK2/cyclin E
Assay type: biochemical
Details: Table 2; average of duplicate points; read-out: CDK2/Cyclin E Average IC50
Answers are plain numbers, in nM.

Worked examples, 2 compounds total:
CCC(Nc1nc(NCc2cccnc2)c2ncn(C(C)C)c2n1)C(O)C(F)(F)F (centres unmarked) [[16]]
90
CC[C@H](Nc1nc(NCc2cnc(C)cc2C)c2ncn(C(C)C)c2n1)[C@@H](C)O [Compound [1]]
20

Parameters: items (list). Returns: IC50 for each item.
1. CC[C@H](Nc1nc(NCc2ccc(C(F)(F)F)nc2)c2ncn(C(C)C)c2n1)[C@@H](C)O [[11]]
2. CC[C@H](Nc1nc(NCc2cccc(C)n2)c2ncn(C(C)C)c2n1)[C@@H](C)O [[12]]
3. CC[C@H](Nc1nc(NCC2CC2)c2ncn(C(C)C)c2n1)[C@@H](C)O [[7]]

[40, 50, 40]

* * *

Answer each item with its documented pIC50.
Biological target: CDK9/cyclin T1 (Homo sapiens (Human), UniProt P50750)
Sequence (P50750 whole entry, species assumed): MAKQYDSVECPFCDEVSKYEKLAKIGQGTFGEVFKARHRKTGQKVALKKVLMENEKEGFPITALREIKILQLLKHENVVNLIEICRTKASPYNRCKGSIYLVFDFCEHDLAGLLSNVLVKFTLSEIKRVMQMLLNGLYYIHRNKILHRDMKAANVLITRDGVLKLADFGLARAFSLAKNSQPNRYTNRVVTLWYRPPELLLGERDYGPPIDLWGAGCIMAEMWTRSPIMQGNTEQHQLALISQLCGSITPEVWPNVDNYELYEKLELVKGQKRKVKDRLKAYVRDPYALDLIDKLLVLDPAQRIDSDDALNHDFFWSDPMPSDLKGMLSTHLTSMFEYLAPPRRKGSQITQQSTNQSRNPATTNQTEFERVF
Sequence (O60563 whole entry partner, species assumed): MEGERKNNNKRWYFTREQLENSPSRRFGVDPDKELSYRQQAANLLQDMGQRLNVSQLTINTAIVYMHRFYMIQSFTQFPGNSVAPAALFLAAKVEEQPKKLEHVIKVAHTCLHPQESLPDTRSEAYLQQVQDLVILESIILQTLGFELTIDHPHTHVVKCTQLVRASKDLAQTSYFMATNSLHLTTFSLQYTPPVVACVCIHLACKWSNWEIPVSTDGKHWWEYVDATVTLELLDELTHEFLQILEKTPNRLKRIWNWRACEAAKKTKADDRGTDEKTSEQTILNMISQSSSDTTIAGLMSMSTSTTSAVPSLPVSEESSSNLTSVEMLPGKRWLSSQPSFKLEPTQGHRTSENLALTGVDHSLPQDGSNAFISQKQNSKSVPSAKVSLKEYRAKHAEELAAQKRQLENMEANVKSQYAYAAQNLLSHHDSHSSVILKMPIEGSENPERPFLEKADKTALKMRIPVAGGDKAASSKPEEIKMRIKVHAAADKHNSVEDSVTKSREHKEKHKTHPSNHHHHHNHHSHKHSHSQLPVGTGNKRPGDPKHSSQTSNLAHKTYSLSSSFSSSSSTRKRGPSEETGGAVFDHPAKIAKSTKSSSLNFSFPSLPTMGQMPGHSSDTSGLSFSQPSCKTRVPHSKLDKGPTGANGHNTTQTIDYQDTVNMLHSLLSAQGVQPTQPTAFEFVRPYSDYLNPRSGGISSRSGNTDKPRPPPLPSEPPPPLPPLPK
Assay: In-vitro recombinant kinase assay CDK9/cyclin T1
Type: biochemical
Details: Table 2; average of duplicate points
Answers are plain numbers, as −log10 of the molar value.

Worked examples, 5 molecules total:
CC[C@H](Nc1nc(NCc2ccc(C)nc2)c2ncn(C(C)C)c2n1)[C@@H](C)O [[2]]
5.44
CC[C@H](Nc1nc(NCc2cccc(Cl)c2)c2ncn(C(C)C)c2n1)[C@@H](C)O [[3]]
7.22
CC[C@H](Nc1nc(NCc2ccc(C(F)(F)F)nc2)c2ncn(C(C)C)c2n1)[C@@H](C)O [[11]]
6.60
CC(C)n1cnc2c(NCc3cccnc3)nc(NC[C@@H](C)O)nc21 [[14]]
5.19
CC[C@H](Nc1nc(NCc2ccncc2)c2ncn(C(C)C)c2n1)[C@@H](C)O [[9]]
6.21

Field: next molecule
Memo: CC[C@H](Nc1nc(NCc2ncccc2C)c2ncn(C(C)C)c2n1)[C@@H](C)O [[13]] , reported pIC50: 5.23
